B1: CPEB3 Ribozyme (parent)
chain: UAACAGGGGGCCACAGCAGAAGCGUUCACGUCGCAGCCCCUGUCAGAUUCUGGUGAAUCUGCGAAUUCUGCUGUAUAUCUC

# Variants of: B1
# experimental protocol: self-cleavage, relative activity (ratio to wild type); higher = more cleavage; in vitro, sequencing
recorded endpoint: self-cleavage
Just the number, please, no unit attached.

C27G U72C ... 0.11
G24C C29A ... 0.23
G30A A35U ... 0.15

Prompt: State its self-cleavage for this variant: G52A U66G
Completion: 0.76

Prompt: State its self-cleavage for this variant: G8C U58C
Completion: 0.21

Prompt: State its self-cleavage for this variant: C62G A65U
Completion: 0.27

Prompt: State its self-cleavage for this variant: C12U G16C
Completion: 0.79

Prompt: State its self-cleavage for this variant: G16C U76C
Completion: 0.41

Prompt: State its self-cleavage for this variant: C12U G63C
Completion: 1.26

Prompt: State its self-cleavage for this variant: A2U U66A
Completion: 0.52

Prompt: State its self-cleavage for this variant: A15U G16U
Completion: 0.3

Prompt: State its self-cleavage for this variant: U26A U76C
Completion: 0.74

Prompt: State its self-cleavage for this variant: A28G G53A
Completion: 0.78

Prompt: State its self-cleavage for this variant: G33A U78C
Completion: 0.2

Provenance of the data: the RNAGym collection of RNA variant scans (doi:10.1093/nar/gkz1192)
